# Tested on: Trypanosoma brucei rhodesiense
# Protocol: Antitrypanosomal activity against Trypanosoma rhodesiense infected in mouse assessed as increase in survival time by 30 days at 20 mg/kg relative to control
# Type: functional
Assay metric: MST
# output: numeric value plus its unit

Solved cases below.
N=C(N)c1ccc(/C=C/c2ccc(C(=N)N)cc2)cc1 | 5 days
[Cl-].[Cl-].c1cc([C+]2NCCCN2)ccc1-c1ccc(-c2ccc([C+]3NCCCN3)cc2)s1 | 3 days
N=C(N)c1ccc(/C=C/c2ccc(C(=N)N)cc2O)cc1 [HYDROXYSTILBAMIDINE] | 5 days
CC1CN[C+](c2ccc(-c3ccc(-c4ccc([C+]5NCC(C)N5)cc4)n3C)cc2)N1.[Cl-].[Cl-] (stereo not given) | 3 days

--- query ---
Ask | Report MST on Trypanosoma brucei rhodesiense for this entry: `Cn1c(-c2ccc([C+](N)N)cc2)ccc1-c1ccc([C+](N)N)cc1.[Cl-].[Cl-]`
Reply | 5 days

* * *

# System: Trypanosoma brucei rhodesiense
# Protocol: Antitrypanosomal activity against Trypanosoma rhodesiense infected in mouse assessed as increase in survival time by 30 days at 10 mg/kg relative to control
# Format: functional
Assay metric: MST (days)
Dear colleague, please return just the value in days, with no unit written.

Solved cases below.
Cn1c(-c2ccc([C+](N)N)cc2)ccc1-c1ccc([C+](N)N)cc1.[Cl-].[Cl-] | 5
N=C(N)c1ccc(/C=C/c2ccc(C(=N)N)cc2O)cc1 [HYDROXYSTILBAMIDINE] | 5
Cl.Cl.N=C(N)c1ccc(-c2ccc(-c3ccc(C(=N)N)cc3)s2)cc1 | 5
N=C(N)c1ccc(OCCCCCOc2ccc(C(=N)N)cc2)cc1 | 5
Cn1c(-c2ccc([C+]3NCCN3)cc2)ccc1-c1ccc([C+]2NCCN2)cc1.[Cl-].[Cl-] | 2

Ask | Given the compound `Cn1c(-c2ccc([C+]3NCCCN3)cc2)ccc1-c1ccc([C+]2NCCCN2)cc1.[Cl-].[Cl-]` , write its reported MST.
Reply | 2

Ask | Given the compound `[Cl-].[Cl-].c1cc([C+]2NCCCN2)ccc1-c1ccc(-c2ccc([C+]3NCCCN3)cc2)s1` , write its reported MST.
Reply | 2

Ask | Given the compound `N=C(N)c1ccc(-c2ccc(-c3ccc(C(=N)N)cc3)o2)cc1` , write its reported MST.
Reply | 5

Ask | Given the compound `N=C(N)c1ccc(/C=C/c2ccc(C(=N)N)cc2)cc1` , write its reported MST.
Reply | 5

Where these numbers come from: ChEMBL document CHEMBL3272241
